System: MS2 coat protein
Test: apparent KD of MS2 coat protein; designed switch direction (-1 OFF switch, 1 ON switch): -1; higher = weaker reporter binding
Conditions: input ligand: FMN 200 uM
// not fulfilled strictly below 30 nM in apparent KD of MS2 coat protein; fulfilled otherwise

* ACAAGCUAUAUGCUCGGUUACAUGAGGAUCACCCAUGUACUCAUGUUCUUAUGUACUGACACGAAAGUGUUAGUAAU [AK-miRNA-r3-1] (Eterna round: R97, puzzle: Sensor, turn-off variant 1) | fulfilled
* UAGUGCUGAGGAUAUACAUGAGGAUCACCCAUGUGCCUUUAACUUAAAGUGUGCACAAGUAGAAGGCGGUGCAA [Eternabot (L1) Solution 93] (Eterna round: R97, puzzle: Exclusion 3) | not fulfilled
* UCCUCACAUGAGGAUCACCCAUGUCAGGAUAUCCAGUUGGGCCUCUGUAGAGGCGCCAGGAGAAGGGAUAAGGA [Ceenerso] (Eterna round: R97, puzzle: Exclusion 1) | fulfilled
* ACAUGUCAUUGAGGAUAUUGCAAACAUGAGGAUCACCCAUGUAUACGGAUGCUCUUACGUGGGUUCGAGAAGGCGAUGUACAUU [Ex NG2 #92] (Eterna round: R96, puzzle: Exclusion NG 2) | fulfilled
* AAACUGAGGCAAAGCUUUAGUCGUACAUGAGGAUCACCCAUGUAGGAUAUGGUAGGCAAAGCUUACCAGAAGGACAGAGUGAUC [Mat - Exclusion NG 3 - Mod of JL - D57] (Eterna round: R96, puzzle: Exclusion NG 3) | fulfilled
* GAUCUACAUGAGGAUCACCCAUGUAAGGAUAUUGAGUACUCGAAUGGAGAGCAAGGAUCAAGAAGGUGCAAUAU [Eternabot (L1) Solution 79] (Eterna round: R97, puzzle: Exclusion 1) | not fulfilled
* AAAUAGCGAGGAUAUACUGGAAUAGAAAAUAUUCGCAUGGCACAUGAGGAUCACCCAUGUAGAAGGCGCAGUAA (Eterna round: R97, puzzle: Exclusion 2) | fulfilled
* AUUGUUUGAUACCUCUAAUACAUGAGGAUCACCCAUGUUAUCGAGGAUAUGUAGAAGAGAGGAGAACAGAAGGCGAAGUAAGAG [JR_ExcNG3_Sub095] (Eterna round: R96, puzzle: Exclusion NG 3) | not fulfilled
